- Test system: K562
- assayText: NCI tumour cell line growth inhibition, 48 h
Activity calls are given as the source filed them. Rule as the data show it: active = GI50 up to about 1.1 µM and inactive = higher.
Would you mind answering with one of these outcomes? label 1 (active), label 0 (inactive)

molecule: CCOC(=O)N1CCC2C(=C(C)C(C)C3=C2C(=O)c2ccccc2C3=O)C1 (stereo not drawn)
classification: label 0
--
molecule: CCOP(=O)(OCC)/C(C#N)=C(\C)c1ccco1
classification: label 0
--
molecule: O=C(Nc1nnc(-c2ccc(Cl)cc2)o1)C(SC(=S)N1CCCCC1)c1ccccc1 (stereo not drawn)
classification: label 0
--
molecule: O=c1cnc2cc3ccccc3cc2[nH]1
classification: label 0

Input: // param item: "CC(C)C[C@H](NC(=O)[C@H](Cc1ccccc1)NC(=O)c1cnccn1)B(O)O" ; yields the recorded call
Output: label 1

Input: What about "CCOCc1cc(=O)c2c(O)cc3c(c2o1)CCC(C)(C)O3" ?
Output: label 0

Input: What about CCOC(=O)C1(C)CCCc2sc(N)c(C#N)c21 (stereo not drawn) ?
Output: label 0

Input: What about Nc1nc(F)nc2c1ncn2C1OC(COP(=O)(O)O)C(O)C1O (stereo not drawn) ?
Output: label 0

Input: What about "Cc1noc(C)c1C1=CCCCc2ccccc21" ?
Output: label 0

Input: What about COC(=O)C(C(=O)C(=O)Nc1cccc(O)c1)c1nc2ccc(Cl)cc2nc1O (stereo not drawn) ?
Output: label 0

Input: What about "COc1nc(C)nc2sc3c(c12)CCCC3" ?
Output: label 0

Input: What about NC(CCOCCP(=O)(O)CCOCCC(N)C(=O)O)C(=O)O (stereo not drawn) ?
Output: label 0

Input: What about O=CC(O)C(O)C(O)COc1cc(CO)cc2c1C(=O)c1ccccc1C2=O (stereo not drawn) ?
Output: label 0

Input: What about "CN(C)C(=N)NC(N)=S" ?
Output: label 0

Input: What about "CC(C)C(=O)N1C(=O)O[C@@H](c2ccccc2)[C@H]1C" ?
Output: label 0

Input: What about "O=CN1CCN(C(=O)c2ccco2)C1=S" ?
Output: label 0

Input: What about CC(=O)OCC1OC(n2c(C)c(/N=N/c3ccc(Cl)cc3)c(C)c(C#N)c2=S)C(OC(C)=O)C(OC(C)=O)C1OC(C)=O (stereo not drawn) ?
Output: label 0

Input: What about N#CC(C(=O)CCC(=O)Nc1ccc(Cl)cc1)c1ccc(Cl)cc1 (stereo not drawn) ?
Output: label 0
